Measured values drawn from ChEMBL document CHEMBL1240419 for this set.

# Test system: Haemophilus influenzae
# Protocol: Antibacterial activity against ampicillin-resistant Haemophilus influenzae 3300 by broth microdilution method
# Type: functional
Assay readout: MIC (µg/mL)

Compound string	Assay readout	Unit text	Observed
CCCCNC(=O)O[C@H]1[C@H](C)[C@@H](O[C@@H]2O[C@H](C)C[C@H](N(C)C)[C@H]2O)[C@](C)(OC)C[C@@H](C)C(=O)[C@@H](C)[C@@H](OC)[C@](C)(O)[C@@H](CC)OC(=O)[C@@H]1C	MIC	µg/mL	4
CC[C@H]1OC(=O)[C@H](C)[C@@H](O[C@H]2C[C@@](C)(OC)[C@@H](O)[C@H](C)O2)[C@H](C)[C@@H](O[C@@H]2O[C@H](C)C[C@H](N(C)C)[C@H]2O)[C@](C)(OC)C[C@@H](C)C(=O)[C@H](C)[C@@H](O)[C@]1(C)O	MIC	µg/mL	8
CC[C@H]1OC(=O)[C@H](C)[C@@H](OC(=O)NCc2ccco2)[C@H](C)[C@@H](O[C@@H]2O[C@H](C)C[C@H](N(C)C)[C@H]2O)[C@](C)(OC)C[C@@H](C)C(=O)[C@@H](C)[C@@H](OC)[C@]1(C)O	MIC	µg/mL	2
CC[C@H]1OC(=O)[C@H](C)[C@@H](OC(=O)Nc2nccs2)[C@H](C)[C@@H](O[C@@H]2O[C@H](C)C[C@H](N(C)C)[C@H]2O)[C@](C)(OC)C[C@@H](C)C(=O)[C@@H](C)[C@@H](OC)[C@]1(C)O	MIC	µg/mL	32
